Exercise: for every item that follows, state its recorded pEC50.
- System: ATF4 luciferase reporter in HEK293T cells
- TEST_METHOD_NOTES: ATF4-Luc assay (in vitro model of VWMD)
- Type: cell-based, human
- COND: Homo sapiens, HEK-293T, 7 h, HEK293T cells carrying the ATF4 luciferase reporter, 1 μg/mL tunicamycin, One Glo luminescence
pEC50: −log10 of the molar value.

| COMPOUND | pEC50 |
| --- | --- |
| O=C(NC12CC(n3cc(-c4cnn(CC(F)(F)F)c4)cn3)(C1)C2)[C@H]1C[C@@H](O)c2cc(Cl)c(Cl)cc2O1 [Compound 565] | > 8.00 |

Hi, could you look up pEC50 for each item in my list?
1. O=C(NC12CC(n3cc(COCCOC(F)(F)F)nn3)(C1)C2)[C@H]1C[C@@H](O)c2cc(Cl)ccc2O1 [Compound 522]
2. O=C(NC12CC(n3cc(CCCC(F)(F)F)cn3)(C1)C2)[C@H]1C[C@@H](O)c2cc(Cl)c(F)cc2O1 [Compound 520]
3. O=C(NC12CC(n3cc(OC[C@H]4C[C@@H](OC(F)(F)F)C4)cn3)(C1)C2)[C@H]1C[C@@H](O)c2cc(Cl)ccc2O1 [Compound 402]
4. O=C(NC12CCC(n3cc(-c4ccc(C(F)(F)F)cn4)cn3)(C1)C2)[C@H]1C[C@@H](O)c2cc(Cl)ccc2O1 [Compound 626]
5. O=C(NC12CC(c3ccnc(OCCCOC(F)(F)F)c3)(C1)C2)[C@H]1C[C@@H](O)c2cc(Cl)c(F)cc2O1 [Compound 427]
6. O=C(CO[C@H]1C[C@@H](OC(F)(F)F)C1)NC12CC(NC(=O)[C@H]3C[C@@H](O)c4cc(C(F)(F)F)c(F)cc4O3)(C1)C2 [Compound 644]

Resp:
1. > 8.00
2. 7.30 to 8.00
3. > 8.00
4. 7.30 to 8.00
5. > 8.00
6. > 8.00

###

I'd be grateful if you could share measured pEC50 for these entries.
- Test system: ATF4 luciferase reporter in HEK293T cells
- TEST_METHOD_NOTES: ATF4-Luc assay (in vitro model of VWMD)
- Type: cell-based, human
- COND: Homo sapiens, HEK-293T, 7 h, HEK293T cells carrying the ATF4 luciferase reporter, 1 μg/mL tunicamycin, One Glo luminescence
pEC50: −log10 of the molar value.

Past entries and their recorded results:
| COMPOUND | pEC50 |
| --- | --- |
| COc1cc2cn(C34CC(NC(=O)[C@H]5C[C@@H](O)c6cc(Cl)c(F)cc6O5)(C3)C4)nc2cn1 | 7.30 to 8.00 |
| O=C(NC12CC(n3cc(-c4ccc(OC(F)(F)F)nc4)cn3)(C1)C2)[C@H]1C[C@@H](O)c2cc(Cl)ccc2O1 | > 8.00 |
| O=C(NC12CC(n3cc([C@@H]4C[C@H]4COC(F)(F)F)nn3)(C1)C2)[C@H]1C[C@@H](O)c2cc(Cl)ccc2O1 (mixture of isomers) | > 8.00 |
| O=C(NC12CC(n3cnc([C@H]4C[C@@H](OC(F)(F)F)C4)c3)(C1)C2)[C@H]1C[C@@H](O)c2cc(Cl)c(F)cc2O1 | > 8.00 |

Next up:
Req: Return reported pEC50. Input compound: O=C(N[C@H]1CC[C@H](C(=O)N2CC(c3ccc(C(F)(F)F)cc3)C2)CC1)[C@H]1C[C@@H](O)c2cc(Cl)ccc2O1
Resp: > 8.00
